- Test system: LOX IMVI
- Method summary: NCI tumour cell line growth inhibition, 48 h
Calls of active or inactive are those of the source. Rule as the data show it: active = GI50 up to about 1.1 µM and inactive = higher.
// allowed return values: label 1 = active, label 0 = inactive

Please state the recorded outcome for this compound: O=C(c1ccccc1)c1cc(-c2ccccc2)c(-c2ccccc2)[nH]c(=O)c1=O
label 0

What is the recorded call for this compound in the test? Cc1nc(C(N)=S)sc1C(=O)CC(=O)C(=O)Nc1c(C(C)C)cccc1C(C)C
label 0

State the result this test recorded for CC1CCC(=O)C(C(=O)CC2CC(=O)N(C)C(=O)C2)C1 (stereo unspecified) .
label 0

I would be grateful if you could indicate the recorded call for CC1=C(c2ccccc2)CON(c2ccccc2)C1 .
label 0

Called result for CC1=CC2CCC1(C)C/C2=C(/C)OC=O (stereo unspecified)
label 0

Returns: the outcome recorded for Nc1ncc(Cl)c(NCC2(CO)CC(CCc3ccccc3)C2)n1 (stereo unspecified) in this assay.
label 1

----------
- Test system: SR
- Method summary: NCI tumour cell line growth inhibition, 48 h
The source made the active and inactive calls. Rule as the data show it: active = GI50 up to about 1.1 µM and inactive = higher.
Your reply should match one of these outcome classes. active, inactive

Dear all, I need the recorded test outcome for C/C=C/C(CC(O)(C(F)(F)F)C(F)(F)F)=N/NC(N)=S , thank you.
inactive

Could you check what this test reported for COC(Cc1cc(C(O)(c2ccc(C(C)(C)C)cc2)c2cc(CC(OC)(c3cc(C(OC)(c4ccc(C(C)(C)C)cc4)c4ccc(C(C)(C)C)cc4)c(C)cc3C)c3cc(C(OC)(c4ccc(C(C)(C)C)cc4)c4ccc(C(C)(C)C)cc4)c(C)cc3C)c(C)cc2C)c(C)cc1C)(c1cc(C(OC)(c2ccc(C(C)(C)C)cc2)c2ccc(C(C)(C)C)cc2)c(C)cc1C)c1cc(C(OC)(c2ccc(C(C)(C)C)cc2)c2ccc(C(C)(C)C)cc2)c(C)cc1C ?
inactive

Please indicate how the test categorized C1CCC(N=C2N(C3CCCCC3)C(=NC3CCCCC3)N2C2CCCCC2)CC1 .
inactive

For CCCc1cn2c(/C=N/NC(=N)N)c(-c3ccc([N+](=O)[O-])cc3)nc2s1 , what call appears in the results of this test?
active

Would you mind telling me which call this test gave CC[C@]12C=CCN3CCC4(c5cc([C@@]6(C(=O)OC)CC7CN(CCc8c6[nH]c6ccccc86)C[C@@H]6CCC[C@H]76)c(OC)cc5N(C)C4[C@](O)(C(=O)OC)C1OC(C)=O)C32 (stereo partly drawn) ?
active

Continuing:
For Clc1ccc(Cc2nc3cc(CCN4CCN(c5ccccc5)CC4)ccc3[nH]2)cc1 , which call appears in the assay record?
inactive

Which result was noted for this compound in the test: NS(=O)(=O)c1nnc(NS(=O)(=O)c2ccc(Cl)cc2)s1
inactive

Could you check what this test reported for CCCCCCCCCCCCC1NC(=N)NC2(CCCO2)C1C(=O)OC (stereo not drawn) ?
inactive

----------
- Test system: Hs-578T
- Method summary: NCI tumour cell line growth inhibition, 48 h
Structures can show the parent of a compound that is named as a salt. The source made the active and inactive calls. No stated cut-off is given here; in the data, active = GI50 up to about 1.1 µM and inactive = higher.
Endpoint: GI50

Check out these entries, answers already filled in.
Identify the reported GI50 for the following entry. CCN(CC)c1ccc(/C=C/C2=NN(c3cccc(S(=O)(=O)O)c3)C3(C2)SCC(=O)N3c2nc3ccccc3s2)cc1 (configuration not stated)
33.3 µM (inactive)

Look up and state reported GI50 for CNc1ccc(-c2nc3cc(C)ccc3o2)cc1
64.6 µM (inactive)

Please report GI50 for the following compound: O=C(CCCNc1nc(-c2ccccc2)cs1)c1cccs1
> 100 µM (inactive)

Supply GI50 value. Item: O=C1N/C(=N\N=C\c2ccccc2)C(c2ccccc2)O1 (configuration not stated)
> 100 µM (inactive)

Supply reported GI50 belonging to this compound: CN1CCC(CN2c3ccccc3Sc3ccccc32)C1 (configuration not stated) [METHDILAZINE HYDROCHLORIDE]
15.4 µM (inactive)

Identify measured GI50 associated with Oc1cc(/C=C/c2ccccc2)nc2cc3c(cc12)OCO3
3.78 µM (inactive)

Now, please, on to the next compound.
Please give measured GI50 of the following entry: COC(=O)[C@@]12C(=O)C(C)C(=O)[C@]1(C)C(C)=C[C@H]1[C@]3(C=O)CC[C@H](OC(C)=O)C(C)(C)[C@H]3CC[C@@]12C (some centres not stated)
> 100 µM (inactive)
